method.notes: Distribution coefficient, log D of the compound
Format: physicochemical
run.parameters: octanol/water
Each entry below lists one item and its recorded logD value.
Could you respond with only the numeric value?

Cc1ccccc1C1CCc2c(C(=O)N(C)C)cn3c(C)c(C)nc3c2O1 (racemic) :: 2.76
Cc1nc2c3c(c(C(=O)N(C)C)cn2c1C(=O)N(C)C)CCC(c1ccccc1)O3 (racemic) :: 1.69

So, CON(C)C(=O)c1cn2c(C)c(C)nc2c2c1CCC(c1ccccc1)O2 (racemic) ? Its logD was 2.6

====

method.notes: Inhibition of H+/K+ ATPase in hog gastric mucosa
Type: tissue-based, Sus scrofa
Each entry below lists one item and its recorded pIC50 value.

CC(=O)c1c(C)nc2c3c(c(C(=O)N(C)C)cn12)CC[C@H](c1ccccc1)O3 :: < 4
CC(=O)c1c(C)nc2c3c(c(C(=O)N(C)C)cn12)CCC(c1ccccc1)O3 (racemic) :: < 4

So, CCOc1ccc(NC(=O)c2cn3c(C)c(C)nc3c3c2CCC(c2ccccc2)O3)cc1 (racemic) ? Its pIC50 was > 6

Provenance of the data: ChEMBL document CHEMBL1138298
